- assay summary: Blood:plasma distribution
- Assay type: in vitro ADME
- condition description: whole blood; read-out: Blood:plasma distribution (RB)
measure name: blood plasma ratio
Please respond with just the number, no unit label.

## Input Please report the recorded blood plasma ratio for "Nc1nc(O[C@H](c2ccc(Cl)cc2-c2ccccc2)C(F)(F)F)cc(N2CCC3(CC2)CN[C@H](C(=O)O)C3)n1" .
## Output 0.72

* * *

- system: CYP3A4/5 (Homo sapiens, UniProt P08684)
- Sequence (P08684 2-503): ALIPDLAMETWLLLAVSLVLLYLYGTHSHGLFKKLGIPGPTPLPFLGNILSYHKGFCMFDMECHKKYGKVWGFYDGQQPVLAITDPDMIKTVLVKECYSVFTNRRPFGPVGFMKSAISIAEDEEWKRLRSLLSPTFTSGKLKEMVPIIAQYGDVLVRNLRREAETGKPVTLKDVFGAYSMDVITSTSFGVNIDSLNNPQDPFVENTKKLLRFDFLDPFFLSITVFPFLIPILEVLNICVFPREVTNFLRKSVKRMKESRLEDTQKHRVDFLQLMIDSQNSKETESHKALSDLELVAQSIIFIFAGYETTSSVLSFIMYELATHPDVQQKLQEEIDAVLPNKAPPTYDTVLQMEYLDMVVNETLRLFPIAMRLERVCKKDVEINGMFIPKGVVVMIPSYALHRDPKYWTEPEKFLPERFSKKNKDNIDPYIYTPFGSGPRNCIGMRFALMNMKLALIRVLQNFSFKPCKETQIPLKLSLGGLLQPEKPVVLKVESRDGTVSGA
- assay summary: Direct and time-dependent CYP inhibition, pooled human liver microsomes
- Assay type: in vitro ADME
- condition description: human, pooled human liver microsomes, probe midazolam (1′ hydroxylation); midazolam 1′ hydroxylation; read-out: In vitro IC50, direct inhibition, CYP3A4
measure name: pIC50
A value of pIC50 is the negative decimal logarithm of a concentration given in moles per litre.

## Input Please report the recorded pIC50 for "CCOC(=O)[C@@H]1CC2(CCN(c3cc(O[C@H](c4ccc(Cl)cc4-c4ccccc4)C(F)(F)F)nc(N)n3)CC2)CN1" .
## Output 4.89
